system: T1, cyno FcRn/b2M (cyno, UniProt Q8SPV9 24-297; Q8SPW0 21-119, biotinylated)
T1 construct: bought recombinant biotinylated protein (Immunitrack ITF05 or ACRO FCM-C82W5); also called cFcRn; cFcRn/cb2M
T1 sequence (Q8SPV9 24-297 limits assumed, chain 1 of 2): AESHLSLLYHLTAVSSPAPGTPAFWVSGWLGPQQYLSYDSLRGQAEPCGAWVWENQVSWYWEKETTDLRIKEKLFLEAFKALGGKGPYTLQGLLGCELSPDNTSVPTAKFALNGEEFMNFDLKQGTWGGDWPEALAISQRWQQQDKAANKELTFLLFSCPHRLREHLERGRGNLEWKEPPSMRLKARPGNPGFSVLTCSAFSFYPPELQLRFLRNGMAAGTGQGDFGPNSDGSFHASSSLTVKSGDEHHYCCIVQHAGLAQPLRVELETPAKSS
T1 sequence (Q8SPW0 21-119 limits assumed, chain 2 of 2): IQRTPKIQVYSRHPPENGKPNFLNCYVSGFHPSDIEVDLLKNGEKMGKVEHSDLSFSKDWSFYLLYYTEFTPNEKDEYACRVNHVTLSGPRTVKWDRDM
method.description: SPR off-rate; pH 7.4 vs pH 6.0;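 note: surface plasmon resonance with diluted periplasmic extracts flowed over ligand surfaces, 120 s association and 600–3600 s dissociation at 25 °C, running buffer containing 150 mM NaCl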
assay.endpoint: kd ratio pH 7.4/6.0
// no unit, no text: just the number

Sample records with kd ratio pH 7.4/6.0:
T0263018B11 S31T (VHH, name in Kabat numbering, FLAG3-His6 tagged) VHH: EVQLVESGGGVVQPGGSLRLSCAASGFTFSTYAMYWVRQAPGKGLEWVSAISSGGGSTDYADSVKGRFTISRDNSKNTLYLQMNSLRPEDTALYYCAADTLYTSLTWYSYWGQGTLVTVSS | 60
T0263018B11 S101T (VHH, name in Kabat numbering, FLAG3-His6 tagged) VHH: EVQLVESGGGVVQPGGSLRLSCAASGFTFSSYAMYWVRQAPGKGLEWVSAISSGGGSTDYADSVKGRFTISRDNSKNTLYLQMNSLRPEDTALYYCAADTLYTSLTWYTYWGQGTLVTVSS | 54
T0263018B11 S30P (VHH, name in Kabat numbering, FLAG3-His6 tagged) VHH: EVQLVESGGGVVQPGGSLRLSCAASGFTFPSYAMYWVRQAPGKGLEWVSAISSGGGSTDYADSVKGRFTISRDNSKNTLYLQMNSLRPEDTALYYCAADTLYTSLTWYSYWGQGTLVTVSS | 41
T0263018B11 T96M (VHH, name in Kabat numbering, FLAG3-His6 tagged) VHH: EVQLVESGGGVVQPGGSLRLSCAASGFTFSSYAMYWVRQAPGKGLEWVSAISSGGGSTDYADSVKGRFTISRDNSKNTLYLQMNSLRPEDTALYYCAADMLYTSLTWYSYWGQGTLVTVSS | 49
T0263018B11 S52aA (VHH, name in Kabat numbering, FLAG3-His6 tagged) VHH: EVQLVESGGGVVQPGGSLRLSCAASGFTFSSYAMYWVRQAPGKGLEWVSAISAGGGSTDYADSVKGRFTISRDNSKNTLYLQMNSLRPEDTALYYCAADTLYTSLTWYSYWGQGTLVTVSS | 51

For record T0263018B11 S31P (VHH, name in Kabat numbering, FLAG3-His6 tagged) VHH: EVQLVESGGGVVQPGGSLRLSCAASGFTFSPYAMYWVRQAPGKGLEWVSAISSGGGSTDYADSVKGRFTISRDNSKNTLYLQMNSLRPEDTALYYCAADTLYTSLTWYSYWGQGTLVTVSS the listed kd ratio pH 7.4/6.0 is 59

For record T0263018B11 T28S (VHH, name in Kabat numbering, FLAG3-His6 tagged) VHH: EVQLVESGGGVVQPGGSLRLSCAASGFSFSSYAMYWVRQAPGKGLEWVSAISSGGGSTDYADSVKGRFTISRDNSKNTLYLQMNSLRPEDTALYYCAADTLYTSLTWYSYWGQGTLVTVSS the listed kd ratio pH 7.4/6.0 is 85

For record T0263018B11 G54V (VHH, name in Kabat numbering, FLAG3-His6 tagged) VHH: EVQLVESGGGVVQPGGSLRLSCAASGFTFSSYAMYWVRQAPGKGLEWVSAISSGVGSTDYADSVKGRFTISRDNSKNTLYLQMNSLRPEDTALYYCAADTLYTSLTWYSYWGQGTLVTVSS the listed kd ratio pH 7.4/6.0 is 31
